The measurements presented in this section are drawn from ChEMBL document CHEMBL1158230.

- experiment.notes: Cytotoxicity against mouse EN19 cells after 2 hrs by MTT assay
- Type: functional, cell-based
- condition.label: EN19, 2 h
endpoint: IC50

compound: NC(=O)CC1(O)C=C(Br)C(=O)C(Br)=C1 [VERONGIAQUINOL]
endpoint: IC50
measurement: 46.1 µM

Note: attention shifts to another entry.
Indicate its recorded IC50; the compound in question is COC1=C(Br)[C@H](O)[C@](O)(CC#N)C=C1Br
8.2 µM

====

- experiment.notes: Cytotoxicity against buthionine sulfoximine-pretreated human HeLaS3 cells after 2 hrs by MTT assay
- Assay type: functional, cell-based
- condition.label: HeLa S3
endpoint: IC50

compound.smiles: NC(=O)CC1(O)C=C(Br)C(=O)C(Br)=C1
measurement: 15.7 µM

Continue with the next compound.
Respond only with IC50 recorded for COC1=C(Br)[C@H](O)[C@](O)(CC#N)C=C1Br
5.4 µM
